ASSAY_SUMMARY: HILIC, Waters ACQUITY UPLC BEH Amide, 100 × 2.1 mm, 1.7 µm; A: water + 0.125% formic acid + 10 mM ammonium formate; B: 5% water + 95% acetonitrile + 0.125% formic acid + 10 mM ammonium formate; gradient (min/%B) 0/100 2/100 7.7/70 9.5/40 10.25/30 12.75/100 17/100
REPORTED_CONDITIONS: stereoisomer not certain
READOUT_KIND: LC retention time (min)

COMPOUND	REPORTED
CNc1ccccc1C(=O)O [N-Methylanthranilic acid]	1.22

a = CN1C(C(=O)Nc2ccccn2)=C(O)c2ccccc2S1(=O)=O [Piroxicam]
b = O=C(CCCN1CC=C(n2c(=O)[nH]c3ccccc32)CC1)c1ccc(F)cc1 [Droperidol]
c = c1ccc2c(c1)Cc1ccccc1-2 [Fluorene]
Request: I would appreciate it if you could sort these 3 compounds by LC retention time, starting from the smallest number. List the labels, following the order given in the request.
Response: a, b, c
(a: 1.02 min, b: 3.48 min, c: 6.66 min)

----------
ASSAY_SUMMARY: HILIC, Waters ACQUITY UPLC BEH Amide, 100 × 2.1 mm, 1.7 µm; A: water + 0.125% formic acid + 10 mM ammonium formate; B: 5% water + 95% acetonitrile + 0.125% formic acid + 10 mM ammonium formate; gradient (min/%B) 0/100 2/100 7.7/70 9.5/40 10.25/30 12.75/100 17/100
REPORTED_CONDITIONS: stereoisomer not certain
READOUT_KIND: LC retention time (min)

MOLECULE	LC retention time, min
CNNCc1ccc(C(=O)NC(C)C)cc1 [Procarbazine]	4.61
COc1ccc(-c2oc3c(CC=C(C)C)c(OC4OC(CO)C(O)C(O)C4O)cc(O)c3c(=O)c2OC2OC(C)C(O)C(O)C2O)cc1 (stereo unspecified) [Icarin]	4.74
COc1ccc2c(c1OC)C(=O)OC2C1c2c(cc3c(c2OC)OCO3)CCN1C (stereo unspecified) [Noscapine]	1.31

1 = O=P(O)(O)OCC1OC(O)C(O)C(O)C1O (stereo unspecified) [Glucose-6-phosphate]
2 = CCC(=O)NCC(=O)O [2-Propanamidoacetic acid]
3 = c1ccc2c(-c3nccs3)c[nH]c2c1 [Camalexin]
Request: Task for the reader: rank each entry by its LC retention time, from the minimum upward. Answer by writing out the labels in the requested order.
Response: 3, 2, 1
(3: 1.05 min, 2: 5.37 min, 1: 9.86 min)

----------
ASSAY_SUMMARY: HILIC, Waters ACQUITY UPLC BEH Amide, 100 × 2.1 mm, 1.7 µm; A: water + 0.125% formic acid + 10 mM ammonium formate; B: 5% water + 95% acetonitrile + 0.125% formic acid + 10 mM ammonium formate; gradient (min/%B) 0/100 2/100 7.7/70 9.5/40 10.25/30 12.75/100 17/100
REPORTED_CONDITIONS: stereoisomer not certain
READOUT_KIND: LC retention time (min)

As a guide, the following entries are already answered.
COMPOUND	LC retention time, min
CC12CCC3C(CCC4=CC(=O)CCC43C)C1CCC2=O (stereo unspecified)	1.09
CC(O)C(C)O (stereo unspecified)	3.34
Cn1cc(CC(N)C(=O)O)c2ccccc21 (stereo unspecified)	6.38
NCCCCC(N)C(=O)O (stereo unspecified)	9.54
CC(=O)Nc1ccc(O)cc1	1.37
NC(N)=NCC(=O)O	8.16
Nc1c(O)cccc1C(=O)O [3-Hydroxyanthranilic acid]	1.48
O=C(O)C1CCC(C(=O)O)CC1 (stereo unspecified)	1.56
Cc1nnc2n1-c1ccc(Cl)cc1C(c1ccccc1Cl)=NC2	1.3
CC(=O)Nc1ccc(CC(=O)O)cc1	1.58

I = COC1C(O)C(CO)OC1n1cc(C)c(=O)[nH]c1=O (stereo unspecified)
II = CC(C)C(N)C(=O)O (stereo unspecified)
III = COc1ccccc1OCCNCC(O)COc1cccc2[nH]c3ccccc3c12 (stereo unspecified)
IV = COC1C(O)C(CO)OC1n1ccc(N)nc1=O (stereo unspecified)
V = CCOC(=O)C1=C(C)NC(C)=C(C(=O)OCC)C1c1ccccc1C=CC(=O)OC(C)(C)C
Request: Arrange the 5 compounds by rising LC retention time, starting with the smallest. Response format: the labels, sorted as the prompt asks.
Response: V, I, III, IV, II
(V: 0.94 min, I: 1.75 min, III: 3.17 min, IV: 5.02 min, II: 7.24 min)

----------
ASSAY_SUMMARY: HILIC, Waters ACQUITY UPLC BEH Amide, 100 × 2.1 mm, 1.7 µm; A: water + 0.125% formic acid + 10 mM ammonium formate; B: 5% water + 95% acetonitrile + 0.125% formic acid + 10 mM ammonium formate; gradient (min/%B) 0/100 2/100 7.7/70 9.5/40 10.25/30 12.75/100 17/100
REPORTED_CONDITIONS: stereoisomer not certain
READOUT_KIND: LC retention time (min)

# count of solved cases: 6
MOLECULE	LC retention time (min)
O=[N+]([O-])c1cccc2cn[nH]c12 [7-Nitroindazole]	1.03
Cc1nnc2n1-c1ccc(Cl)cc1C(c1ccccc1)=NC2 [Alprazolam]	1.34
CN1CCN(C2=Nc3ccccc3Oc3ccc(Cl)cc32)CC1 [Loxapine]	2.18
O=Cc1ccc(O)cc1 [4-Hydroxybenzaldehyde]	1.18
O=C(O)CCCCCO [6-Hydroxycaproic acid]	1.34
C=Cc1ccccc1 [Styrene]	8.74

1 = COC1C(O)C(CO)OC1n1cc(C)c(N)nc1=O (centres undefined) [2'-O-Methyl-5-methylcytidine]
2 = O=C(O)COCCN1CCN(C(c2ccccc2)c2ccc(Cl)cc2)CC1 (centres undefined) [Levocetirizine]
Request: Returns: the argument ( 1 or 2 ) having the larger LC retention time. # reply format: chosen label
Response: 1

a = CC(=O)OC1CC2CCC3C(CCC4(C)C3CC([N+]3(C)CCCCC3)C4OC(C)=O)C2(C)CC1N1CCCCC1 (centres undefined) [Vercuronium]
b = CC(=O)NCCCC(=O)O [4-Acetamidobutyric acid]
Request: Kindly identify the item with the lower LC retention time figure among these two: a and b Please identify the chosen entry by its label.
Response: b
(b: 2.26 min, a: 5.53 min)

----------
ASSAY_SUMMARY: HILIC, Waters ACQUITY UPLC BEH Amide, 100 × 2.1 mm, 1.7 µm; A: water + 0.125% formic acid + 10 mM ammonium formate; B: 5% water + 95% acetonitrile + 0.125% formic acid + 10 mM ammonium formate; gradient (min/%B) 0/100 2/100 7.7/70 9.5/40 10.25/30 12.75/100 17/100
REPORTED_CONDITIONS: stereoisomer not certain
READOUT_KIND: LC retention time (min)

Below, each entry is followed by its recorded LC retention time result.
COMPOUND	UNIT_TEXT	LC retention time
COc1ccc(Cc2nccc3cc(OC)c(OC)cc23)cc1OC	min	1.54
CNCC(O)c1ccc(O)cc1 (stereo unspecified) [Synephrine]	min	5.67

A = CCOC(=O)C(CCc1ccccc1)NC(C)C(=O)N1C(C(=O)O)CC2CCCC21 (stereo unspecified)
B = OCC1OC(OC2C(CO)OC(O)C(O)C2O)C(O)C(O)C1O (stereo unspecified)
C = Nc1ncnc2c1ncn2C1OC(CO)CC1O (stereo unspecified) [Cordycepin]
Request: Arrange these 3 compounds in increasing order of LC retention time. To answer, arrange all of the labels according to the requested order.
Response: A, C, B

----------
ASSAY_SUMMARY: HILIC, Waters ACQUITY UPLC BEH Amide, 100 × 2.1 mm, 1.7 µm; A: water + 0.125% formic acid + 10 mM ammonium formate; B: 5% water + 95% acetonitrile + 0.125% formic acid + 10 mM ammonium formate; gradient (min/%B) 0/100 2/100 7.7/70 9.5/40 10.25/30 12.75/100 17/100
REPORTED_CONDITIONS: stereoisomer not certain
READOUT_KIND: LC retention time (min)

COMPOUND	UNIT_TEXT	REPORTED
CC(NC(=O)C(N)CCCN=C(N)N)C(=O)O (stereo not drawn) [Arg-Ala]	min	9.66

a = CCCCCCc1ccc(O)cc1O [4-Hexylresorcinol]
b = CC(N)C(=O)NC(C(=O)O)C(C)C (stereo not drawn) [Ala-Val]
Request: For a and b , which recorded LC retention time is lower? State the label of the item chosen.
Response: a
(a: 1.63 min, b: 7.66 min)

----------
ASSAY_SUMMARY: HILIC, Waters ACQUITY UPLC BEH Amide, 100 × 2.1 mm, 1.7 µm; A: water + 0.125% formic acid + 10 mM ammonium formate; B: 5% water + 95% acetonitrile + 0.125% formic acid + 10 mM ammonium formate; gradient (min/%B) 0/100 2/100 7.7/70 9.5/40 10.25/30 12.75/100 17/100
REPORTED_CONDITIONS: stereoisomer not certain
READOUT_KIND: LC retention time (min)

MOLECULE	READOUT_KIND	REPORTED
CCCCCCCCCCCCCCCC(O)C(N)CO (centres undefined) [Dihydrosphingosine]	LC retention time	4.47
CN(C)c1ccc(N=Nc2ccccc2)cc1 [p-(Dimethylamino)azobenzene [methyl yellow]]	LC retention time	0.93
CN1C(CC(=O)c2ccccc2)CCCC1CC(O)c1ccccc1 (centres undefined) [Lobeline A]	LC retention time	2.02

A = Nc1nc(Cl)nc2c1ncn2C1CC(O)C(CO)O1 (centres undefined) [Cladribine]
B = CC(C)=CCCC(C)O (centres undefined) [6-Methyl-5-hepten-2-ol]
C = COCCCCC(=NOCCN)c1ccc(C(F)(F)F)cc1 [Fluvoxamine]
Request: Order the items by recorded LC retention time; the first position goes to the largest value. Response format: the labels, sorted as the prompt asks.
Response: B, C, A
(B: 7.3 min, C: 2.93 min, A: 1.95 min)

These data points were gathered from the RepoRT retention time repository.
